- Tested on: M14 melanoma
- method-notes: NCI-60 one-dose screen, 48 h (100 = growth as untreated, 0 = no growth, -100 = all killed)
- run-conditions: 10 µM unless noted
Compounds without any hit were thinned out: in the full panel of roughly 83,000, 20% have a hit.
Each entry below lists one item and its recorded growth value.

- compound: "O=C1C=CC(=O)N1c1cc(Cl)c(Cl)cc1Cl"
  units-of-measure: "%"
  growth: 103
- compound: "CC(=O)OC1CC2CCC1(C)C2(C)C (stereo not given)"
  units-of-measure: "%"
  growth: 106
- compound: "O=C(NOC(=O)c1ccccc1)c1ccccc1"
  units-of-measure: "%"
  growth: 104
- compound: "Cc1nnc(N/N=C/c2ccc([N+](=O)[O-])o2)[nH]c1=O"
  units-of-measure: "%"
  growth: 26.2
- compound: "COc1cc([C@@H]2c3cc4c(cc3[C@H](OC3OC5COC(c6ccccc6)OC5C(O)C3O)[C@H]3COC(=O)[C@H]23)OCO4)cc(OC)c1OC (stereo not given in full)"
  units-of-measure: "%"
  growth: 33.2
- compound: "COC(=O)Nc1nc2ccc(C3(c4ccc(F)cc4)OCCO3)cc2[nH]1"
  units-of-measure: "%"
  growth: 23.3
- compound: "O=[N+]([O-])c1ccc2c(c1)Cc1ccccc1-2"
  units-of-measure: "%"
  growth: 106
- compound: "NC(=S)Nc1ccc2c(c1)Cc1ccccc1-2"
  units-of-measure: "%"
  growth: 99.7
- compound: "CCOC(=O)c1cc(CC)sc1NC(=O)CC(C)=O"
  units-of-measure: "%"
  growth: 88.6
- compound: "NNc1cccc([N+](=O)[O-])c1"
  units-of-measure: "%"
  growth: 99.9

* * *

- System: UACC-62 melanoma
- method-notes: NCI-60 one-dose screen, 48 h (100 = growth as untreated, 0 = no growth, -100 = all killed)
- run-conditions: 10 µM unless noted
Compounds without any hit were thinned out: in the full panel of roughly 83,000, 20% have a hit. *1 amine or outer side, *2 acyl side, *3 side chain or, on linkers, in order; H or OH if unused. Where a SMILES comes first, the peptide text is derived from it. Bridges are numbered along the chain shown (N, C = ends). Roman numbers before positions name the chains, in order. [ ]: non-standard residue; d: D form. Actinocin(1to9) = Cc1c2oc3c(C)ccc(C(=O)[*:2])c3nc-2c(C(=O)[*:1])c(N)c1=O; NMeV = CN[CH](C(=O)O)C(C)C; Sar = CNCC(=O)O
growth vs 90%: less than gives met; not less than gives not met.

- compound: "Oc1cc(Cl)ccc1Cc1ccc(Cl)cc1O"
  class-assignment: "met"
- compound: "O=C/C=C/c1ccc([N+](=O)[O-])cc1"
  class-assignment: "not met"
- compound: "CN(C)c1ccc(C(C#N)(c2ccccc2)c2ccc(N(C)C)cc2)cc1"
  class-assignment: "met"
- compound: "Cc1cc(C)c([I+]c2c(C)cc(C)cc2C)c(C)c1"
  class-assignment: "met"
- compound: "S=C=Nc1ccc(N2CCOCC2)cc1"
  class-assignment: "met"
- compound: "O=C(Cc1nc2cc(Cl)c(Cl)cc2nc1CC(=O)c1cccnc1)c1cccnc1"
  class-assignment: "met"
- compound: "O=[N+]([O-])c1ccc([I+]c2ccccc2)cc1"
  class-assignment: "met"
- compound: "CCCCCCCCCCCC[n+]1ccc2ccccc2c1"
  class-assignment: "met"
- compound: "N=C(N)Sc1cccc[n+]1[O-]"
  class-assignment: "met"
- compound: "CN=C(N)N/N=C(\\C)c1ccc2c(c1)Cc1ccccc1-2"
  class-assignment: "met"
- compound: "CC1(C)CCCC2=C1C(=O)N(SC(Cl)(Cl)Cl)C2=O"
  class-assignment: "not met"
- compound: "CCCOS(=O)(=O)c1ccccc1"
  class-assignment: "not met"
- compound: "O=Nc1ccc2ccccc2c1O"
  class-assignment: "met"
- compound: "Cc1ccc(/C=C2\\CNC/C(=C\\c3ccc(C)cc3)C2=O)cc1"
  class-assignment: "met"
- compound: "CCC(C)C1NC(=O)C(NC(=O)c2c3nc4c(C(=O)NC5C(=O)NC(C(C)CC)C(=O)N6CCCC6C(=O)N(C)CC(=O)N(C)C(C(C)C)C(=O)OC5C)ccc(C)c4oc-3c(C)c(=O)c2N)C(C)OC(=O)C(C(C)C)N(C)C(=O)CN(C)C(=O)C2CCCN2C1=O (stereo unspecified) (I: TIP[Sar][NMeV] / II: TIP[Sar][NMeV]; ester I:1-I:C, II:1-II:C; linker I:N-II:N via Actinocin(1to9); configuration not given here)"
  class-assignment: "met"
- compound: "CCCCCCCCCCCC[S+](C)CC(=O)[O-] (stereo unspecified)"
  class-assignment: "met"
- compound: "CC(C)(C)c1ccc(O)c(Br)c1"
  class-assignment: "not met"
- compound: "O=C(Nc1ccc(Cl)c(Cl)c1)Nc1ccccc1O"
  class-assignment: "met"
- compound: "O=[N+]([O-])c1ccc(C2N(Cc3ccc(Cl)cc3)CCN2Cc2ccc(Cl)cc2)cc1"
  class-assignment: "not met"
- compound: "COc1cc(OC)c(/C=C/c2c3ccccc3cc[n+]2C)c(OC)c1"
  class-assignment: "met"
- compound: "CC(C)N=C(N)/N=C(\\N)Nc1ccc2ccc3ccccc3c2c1"
  class-assignment: "met"
- compound: "CCNc1nnnn1CC"
  class-assignment: "not met"
- compound: "C[C@@]1(CO)[C@H](O)CC[C@@]2(C)[C@H]1CC[C@H]1C[C@@H]3C[C@@]12CC[C@@]3(O)COC(=O)CN"
  class-assignment: "met"
- compound: "COc1ccc2c(c1OC)OCC(CN(C)C)C2=O (stereo unspecified)"
  class-assignment: "not met"
- compound: "COc1ccc(NC(=O)/C(=C/N2C(=O)/C(=C/c3ccc(OC)c(OC)c3)NC2=S)C(C)=O)cc1"
  class-assignment: "met"
- compound: "CCc1cccc(CC)c1N1C(=O)C=CC1=O"
  class-assignment: "not met"
- compound: "CCN(CC)CCNC(Cc1ccccc1)c1ccc(OCc2ccccc2)cc1 (stereo unspecified)"
  class-assignment: "met"
- compound: "COc1ccc2nc3cc(Cl)ccc3c(NCCCCCN3CCCCC3)c2c1"
  class-assignment: "met"
- compound: "CC[n+]1ccc(Nc2ccc(NC(=O)c3ccc(Nc4cc[n+](CC)c5ccc([N+](=O)[O-])cc45)cc3)cc2)cc1"
  class-assignment: "met"
- compound: "c1ccc(C2NCCNC2c2ccccc2)cc1 (stereo unspecified)"
  class-assignment: "not met"
- compound: "CCCC[n+]1c(/C=C\\c2c(OC)cc(OC)cc2OC)ccc2ccccc21"
  class-assignment: "met"
- compound: "COc1ccc(C(Cn2ccnc2)Sc2ccc(Cl)c(Cl)c2)cc1 (stereo unspecified)"
  class-assignment: "met"
- compound: "CN1CCC(c2ccccc2)(c2ccccc2)C(=O)C1"
  class-assignment: "not met"
- compound: "O=C(NOC(=O)c1ccccc1)c1ccccc1"
  class-assignment: "not met"
- compound: "O=C1c2ccccc2C(=O)c2c(O)c(Cl)cc(O)c21"
  class-assignment: "met"
- compound: "CC(=O)N1CC(=O)NC1=S"
  class-assignment: "not met"
- compound: "COC1=CC(=O)c2c(O)c3c(c(O)c2C1=O)CC(C)(O)OC3 (stereo unspecified)"
  class-assignment: "met"
- compound: "O=C1c2ccccc2Cc2cccc(Cl)c21"
  class-assignment: "not met"
- compound: "S=C(S)OCN1CCOCC1"
  class-assignment: "not met"
- compound: "Cc1nnc(N/N=C/c2ccc([N+](=O)[O-])o2)[nH]c1=O"
  class-assignment: "met"
